Test system: Enterococcus faecalis
Assay remarks: Antimicrobial activity against Enterococcus faecalis ATCC 29212 assessed as growth inhibition after 18-24 hr by broth double microdilution method
Type: functional
The source made the active and inactive calls. The calls are words filed in the database; no cut-off is given here.
Recorded metric: MIC

Cc1nn(CC(=O)N/N=C2\SCC(=O)N2c2ccccc2)c(=O)n1CCCn1ccnc1 | inactive
Cc1nn(CC(=O)N/N=C/c2ccccc2O)c(=O)n1/N=C/c1ccncc1 | inactive
Cc1nn(CN2CCCCC2)c(=O)n1CCCn1ccnc1 | < 0.12 µg/mL
Cc1n[nH]c(=O)n1CCCn1ccnc1 | inactive

Asked: Any idea what MIC was measured for Cc1nn(CNC2C(=O)N3C2SC(C)(C)C3C(=O)O)c(=O)n1CCCn1ccnc1 (stereo not given) ?
Given back: inactive

Asked: Can you check Cc1nn(CC(=O)NN)c(=O)n1CCCn1ccnc1 next?
Given back: inactive

Asked: Can you check Cc1nn(-c2ccc(/N=C/c3c(Cl)cccc3Cl)cc2F)c(=O)n1CCCn1ccnc1 next?
Given back: inactive

Asked: Can you check Cc1nn(CN2CCOCC2)c(=O)n1CCCn1ccnc1 next?
Given back: 0.97 µg/mL

Asked: Can you check Cc1nn(CNCc2ccco2)c(=O)n1CCCn1ccnc1 next?
Given back: inactive

Asked: Can you check CCOC(=O)Cn1nc(C)n(/N=C/c2ccncc2)c1=O next?
Given back: inactive

Asked: Can you check Cc1nn(-c2ccc(/N=C3\SCC(=O)N3Cc3ccccc3)cc2F)c(=O)n1CCCn1ccnc1 next?
Given back: inactive

Asked: Can you check COc1ccc(/C=N/NC(=O)Cn2nc(C)n(/N=C/c3ccncc3)c2=O)cc1O next?
Given back: inactive

Asked: Can you check COc1ccc(/C=N/NC(=O)Cn2nc(C)n(/N=C/c3ccncc3)c2=O)cc1 next?
Given back: inactive

Asked: Can you check Cc1n[nH]c(=O)n1/N=C/c1ccncc1 next?
Given back: inactive

====

Test system: Staphylococcus aureus
Assay remarks: Antimicrobial activity against Staphylococcus aureus ATCC 25923 assessed as growth inhibition after 18-24 hr by broth double microdilution method
Assay type: functional
Active and inactive are the calls of the source. No cut-off for these calls is given here.
Recorded metric: MIC

Some molecules with known MIC results, for comparison:
Cc1nn(CN2CCOCC2)c(=O)n1CCCn1ccnc1 | 0.48 µg/mL
Cc1nn(Cc2nnc(S)n2-c2ccccc2)c(=O)n1CCCn1ccnc1 | inactive
Cc1nn(-c2ccc(NC(=S)NCc3ccccc3)cc2F)c(=O)n1CCCn1ccnc1 | inactive
Cc1nn(-c2ccc([N+](=O)[O-])cc2F)c(=O)n1CCCn1ccnc1 | inactive
Cc1nn(-c2ccc(/N=C/c3c(Cl)cccc3Cl)cc2F)c(=O)n1CCCn1ccnc1 | inactive

Let's switch to this molecule now.
Asked: Any idea what MIC was measured for Cc1n[nH]c(=O)n1CCCn1ccnc1 ?
Given back: inactive

====

Test system: Enterococcus faecalis
Assay remarks: Antimicrobial activity against Enterococcus faecalis ATCC 29212 assessed as growth inhibition after 18-24 hr by broth double microdilution method
Format: functional
The source made the active and inactive calls. No cut-off for these calls is given here.
Recorded metric: MIC

Some compounds with known MIC results, for comparison:
Cc1nn(-c2ccc(N)cc2F)c(=O)[nH]1 | inactive
Cc1nn(Cc2nnc(S)n2-c2ccccc2)c(=O)n1/N=C/c1ccncc1 | inactive
Cc1nn(CNCCN2CCNCC2)c(=O)n1CCCn1ccnc1 | inactive
CCOC(=O)Cn1nc(C)n(CCCn2ccnc2)c1=O | inactive
Cc1nn(CC(=O)NNC(=S)Nc2ccccc2)c(=O)n1CCCn1ccnc1 | inactive

Asked: Any idea what MIC was measured for CC1(C)S[C@@H]2[C@H](NC(=O)[C@H](N)c3ccccc3)C(=O)N2[C@H]1C(=O)O ?
Given back: 2 µg/mL

The measured values listed here are drawn from ChEMBL document CHEMBL3046479.
